# target-or-system: UniProt:P51639
# Sequence (P51639 whole entry): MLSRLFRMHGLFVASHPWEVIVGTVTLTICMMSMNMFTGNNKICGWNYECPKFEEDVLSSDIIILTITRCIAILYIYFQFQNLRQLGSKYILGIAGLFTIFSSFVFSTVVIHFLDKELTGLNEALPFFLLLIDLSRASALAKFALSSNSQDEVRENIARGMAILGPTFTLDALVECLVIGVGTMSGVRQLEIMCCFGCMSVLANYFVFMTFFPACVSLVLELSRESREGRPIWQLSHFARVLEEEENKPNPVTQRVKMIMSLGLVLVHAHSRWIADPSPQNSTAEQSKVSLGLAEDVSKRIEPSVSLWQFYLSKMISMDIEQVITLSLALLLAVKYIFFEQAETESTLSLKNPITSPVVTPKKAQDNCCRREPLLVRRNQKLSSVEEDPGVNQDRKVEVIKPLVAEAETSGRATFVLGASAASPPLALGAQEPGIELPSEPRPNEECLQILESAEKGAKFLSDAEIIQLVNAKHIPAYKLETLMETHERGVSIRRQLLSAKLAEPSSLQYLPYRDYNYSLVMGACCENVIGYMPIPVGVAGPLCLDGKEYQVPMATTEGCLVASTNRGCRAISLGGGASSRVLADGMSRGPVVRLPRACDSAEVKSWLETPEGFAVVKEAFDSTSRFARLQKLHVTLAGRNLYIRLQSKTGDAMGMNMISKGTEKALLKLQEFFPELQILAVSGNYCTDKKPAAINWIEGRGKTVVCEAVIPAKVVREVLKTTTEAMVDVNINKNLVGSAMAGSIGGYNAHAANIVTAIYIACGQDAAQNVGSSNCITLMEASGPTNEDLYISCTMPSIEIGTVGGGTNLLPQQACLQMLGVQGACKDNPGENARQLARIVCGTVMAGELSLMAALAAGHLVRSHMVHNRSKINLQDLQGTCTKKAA
measured-quantity: pIC50
Note: pIC50 values are expressed as the negative base-10 logarithm of concentration in M.

Sample answers from the record:
>>> meas_value("Cc1cc(-c2c(/C=C/[C@H]3C[C@@H](O)CC(=O)O3)n(C(C)C)c3ccccc23)ccc1F (relative stereo) [Example 113]")
7.52
>>> meas_value("Cc1cc(C)c2c(-c3ccc(F)cc3)c(/C=C/[C@@H](O)C[C@@H](O)CC(=O)O)n(C(C)C)c2c1 (relative stereo) [Example 64]")
7.92
>>> meas_value("CCOC(=O)CC(O)CC(O)/C=C/c1c(-c2ccc(F)cc2)c2cc(Cl)ccc2n1C (centres unmarked) [Example 43]")
5.02
>>> meas_value("Cn1c(/C=C/[C@H](O)C[C@@H](O)CC(=O)O)c(-c2ccc(F)cc2)c2cccc(OCc3ccccc3)c21 (relative stereo) [Example 54]")
3.33

Tested system UniProt:P51639; pIC50 recorded for Cn1c(/C=C/[C@@H]2C[C@@H](O)CC(=O)O2)c(-c2ccc(F)cc2)c2ccccc21 [Example 10] was 5.77

Tested system UniProt:P51639; pIC50 recorded for Cn1c(/C=C\[C@@H]2C[C@@H](O)CC(=O)O2)c(-c2ccc(F)cc2)c2ccccc21 [Example 12] was 5.04

Tested system UniProt:P51639; pIC50 recorded for Cn1c(/C=C/C2CC(O)CC(=O)O2)c(-c2ccc(F)cc2)c2ccccc21 (centres unmarked) [Example 3] was 5.78

Tested system UniProt:P51639; pIC50 recorded for CC[C@H](C)C(=O)O[C@H]1CCC=C2C=C[C@H](C)[C@H](CC[C@@H]3C[C@@H](O)CC(=O)O3)[C@H]21 [Compactin, reference compound] was 6.11

Tested system UniProt:P51639; pIC50 recorded for Cc1cc(C)cc(-c2c(/C=C/[C@@H](O)C[C@@H](O)CC(=O)O)n(C(C)C)c3ccccc23)c1 (relative stereo) [Example 14D] was 8.30

Tested system UniProt:P51639; pIC50 recorded for Cn1c(CC[C@@H]2C[C@@H](O)CC(=O)O2)c(-c2ccc(F)cc2)c2ccccc21 (relative stereo) [Example 89] was 5.03

Tested system UniProt:P51639; pIC50 recorded for Cn1c(/C=C/[C@@H]2C[C@@H](O)CC(=O)O2)c(-c2ccc(F)cc2)c2ccccc21 (relative stereo) [Example 4 (a)] was 5.52
